Here the recorded half-life is given for each entry.
experiment: Phase I metabolic stability in human liver microsomes (with NADPH); format: in vitro ADME; conditions: pH 7.4, presence of NADPH, mean ± SD, n = 3
MEASUREMENT_LABEL: half-life (h)

[[record]]
line_notation = "Cc1cccc(NC(=O)CN2CCN(c3cccc4ccccc34)CC2)c1"
measured_number = 0.276

[[record]]
line_notation = "Cc1cccc(-n2cc(CN3CCN(c4cccc5ccccc45)CC3)nn2)c1"
measured_number = 1.02

[[record]]
line_notation = "CCc1cccc(NC(=O)CN2CCN(c3ccccn3)CC2)c1"
measured_number = 4.16

[[record]]
line_notation = "CCc1cccc(-n2cc(CN3CCN(c4ccccn4)CC3)nn2)c1"
measured_number = 0.626

[[record]]
line_notation = "Cc1cccc(-n2cc(CN3CCC(c4ccccc4)CC3)nn2)c1"
measured_number = 1.06


---

Each entry below lists one item and its recorded IC50 value.
target: human D3R (Homo sapiens); assay: DiscoverX PathHunter β-arrestin recruitment assay, D3R
Sequence (P35462 whole entry): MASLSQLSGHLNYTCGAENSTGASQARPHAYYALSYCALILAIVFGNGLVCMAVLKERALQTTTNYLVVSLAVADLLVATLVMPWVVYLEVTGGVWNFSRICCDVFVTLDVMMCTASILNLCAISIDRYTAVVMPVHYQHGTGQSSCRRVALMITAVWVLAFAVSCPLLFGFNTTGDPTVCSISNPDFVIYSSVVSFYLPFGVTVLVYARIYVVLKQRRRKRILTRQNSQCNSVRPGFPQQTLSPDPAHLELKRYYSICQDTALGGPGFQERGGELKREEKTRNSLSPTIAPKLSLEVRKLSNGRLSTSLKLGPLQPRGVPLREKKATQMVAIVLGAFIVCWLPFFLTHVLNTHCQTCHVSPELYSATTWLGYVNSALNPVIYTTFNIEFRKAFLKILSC
MEASUREMENT_LABEL: IC50

[[record]]
line_notation = "Cc1cccc(-n2cc(CN3CCN(c4ncccn4)CC3)nn2)c1"
measurement_label = "IC50"
result = "> 10 µM"

[[record]]
line_notation = "Cc1cccc(-n2cc(CN3CCC(c4ccccc4)CC3)nn2)c1"
measurement_label = "IC50"
result = "6.3 µM"


---

assay: Pharmacokinetics study in rats (plasma and brain); format: in vivo, Sprague−Dawley rats; conditions: Sprague-Dawley, rat, plasma, ip, 10 mg/kg, 10 mg/kg IP, plasma, read-out: half-life (h) plasma (converted)
MEASUREMENT_LABEL: half-life

[[record]]
molecule = "Cc1cccc(-n2cc(CN3CCN(c4cccc5ccccc45)CC3)nn2)c1 [Compound 18]"
measurement_label = "half-life"
result = "2.54 h"


---

Molecular target: human D4R (Homo sapiens)
Sequence (P21917 1-419): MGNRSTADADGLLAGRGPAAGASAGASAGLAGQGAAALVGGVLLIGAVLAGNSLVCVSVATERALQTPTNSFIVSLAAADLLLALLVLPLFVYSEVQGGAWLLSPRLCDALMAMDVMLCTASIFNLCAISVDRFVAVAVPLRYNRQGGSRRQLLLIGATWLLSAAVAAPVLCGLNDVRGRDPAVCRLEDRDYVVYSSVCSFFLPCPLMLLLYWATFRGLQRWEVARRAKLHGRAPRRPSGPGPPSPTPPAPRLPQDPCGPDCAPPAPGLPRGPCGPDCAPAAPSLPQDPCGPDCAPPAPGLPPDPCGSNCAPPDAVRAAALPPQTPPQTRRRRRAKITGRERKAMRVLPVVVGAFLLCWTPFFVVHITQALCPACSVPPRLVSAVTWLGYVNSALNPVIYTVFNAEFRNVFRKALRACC
Settings: cAMP, antagonist mode, 10 μM forskolin and 10 nM dopamine, normalized to spiperone
# binning rule on D4R Ant. (%): A (below 40%), B (40% to below 80%), C (80% or more)

[[record]]
compound = "Cc1cccc(-n2cc(CN3CCN(c4cccc5ccccc45)CC3)nn2)c1"
discrete_label = "B"

[[record]]
compound = "Cc1cccc(NC(=O)CN2CCC(c3ccccc3)CC2)c1"
discrete_label = "B"

[[record]]
compound = "Cc1cccc(NC(=O)CN2CCN(c3ccccn3)CC2)c1"
discrete_label = "A"

[[record]]
compound = "Cc1cccc(-n2cc(CN3CCN(c4ncccn4)CC3)nn2)c1"
discrete_label = "B"

[[record]]
compound = "CCc1cccc(NC(=O)CN2CCN(c3ccccn3)CC2)c1"
discrete_label = "A"

[[record]]
compound = "Cc1cccc(NC(=O)CN2CCN(c3ncccn3)CC2)c1"
discrete_label = "A"

[[record]]
compound = "Cc1cccc(NC(=O)CN2CCN(c3cccc4ccccc34)CC2)c1"
discrete_label = "C"

[[record]]
compound = "O=C(CCCN1CCC2(CC1)C(=O)NCN2c1ccccc1)c1ccc(F)cc1 [Spiperone, reference compound]"
discrete_label = "C"

[[record]]
compound = "Cc1cccc(-n2cc(CN3CCN(c4ccc(Cl)cn4)CC3)nn2)c1"
discrete_label = "C"

[[record]]
compound = "Cc1cccc(NC(=O)CN2CCN(c3ccc(Cl)cn3)CC2)c1"
discrete_label = "C"

[[record]]
compound = "Cc1cccc(-n2cc(CN3CCC(c4ccccc4)CC3)nn2)c1"
discrete_label = "B"


---

target: human D4R (Homo sapiens, UniProt P21917); experiment: DiscoverX PathHunter β-arrestin recruitment assay, D4R; settings: antagonist mode, EC80 dopamine (1 μM), normalized to spiperone
Classify by measured D4R Ant. (%): Satisfied if it is equal to or exceeds 90%, Not satisfied if it is smaller.

[[record]]
compound = "Cc1cccc(-n2cc(CN3CCC(c4ccccc4)CC3)nn2)c1"
target = "human D4R (Homo sapiens, UniProt P21917)"
discrete_label = "Satisfied"

[[record]]
compound = "Cc1cccc(-n2cc(CN3CCN(c4ccccn4)CC3)nn2)c1"
target = "human D4R (Homo sapiens, UniProt P21917)"
discrete_label = "Not satisfied"

[[record]]
compound = "Cc1cccc(-n2cc(CN3CCN(c4ncccn4)CC3)nn2)c1"
target = "human D4R (Homo sapiens, UniProt P21917)"
discrete_label = "Not satisfied"

[[record]]
compound = "O=C(CCCN1CCC2(CC1)C(=O)NCN2c1ccccc1)c1ccc(F)cc1 [Spiperone, reference compound]"
target = "human D4R (Homo sapiens, UniProt P21917)"
discrete_label = "Satisfied"


---

Biological target: human D4R (Homo sapiens)
Sequence (P21917 1-419): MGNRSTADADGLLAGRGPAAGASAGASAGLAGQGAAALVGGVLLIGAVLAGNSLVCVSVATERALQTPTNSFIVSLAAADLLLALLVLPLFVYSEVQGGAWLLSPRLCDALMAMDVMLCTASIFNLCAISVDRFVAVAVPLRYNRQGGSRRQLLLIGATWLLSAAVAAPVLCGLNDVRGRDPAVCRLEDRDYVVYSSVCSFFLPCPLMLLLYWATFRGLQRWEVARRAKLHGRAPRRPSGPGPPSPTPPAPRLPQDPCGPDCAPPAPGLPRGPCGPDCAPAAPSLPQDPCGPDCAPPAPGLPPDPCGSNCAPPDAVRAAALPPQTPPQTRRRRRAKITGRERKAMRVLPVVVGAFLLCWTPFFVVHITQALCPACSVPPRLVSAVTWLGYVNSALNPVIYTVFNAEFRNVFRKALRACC
Test: DiscoverX PathHunter β-arrestin recruitment assay, D4R
MEASUREMENT_LABEL: EC50

[[record]]
compound = "Cc1cccc(-n2cc(CN3CCN(c4cccc5ccccc45)CC3)nn2)c1 [Compound 18]"
result = "> 10 µM"

[[record]]
compound = "Cc1cccc(-n2cc(CN3CCN(c4ccccn4)CC3)nn2)c1 [Compound 15]"
result = "> 100 µM"

[[record]]
compound = "Cc1cccc(-n2cc(CN3CCC(c4ccccc4)CC3)nn2)c1 [Compound 14]"
result = "> 100 µM"

[[record]]
compound = "Cc1cccc(-n2cc(CN3CCN(c4ncccn4)CC3)nn2)c1 [Compound 16]"
result = "> 100 µM"


---

Entries and their measured Kp follow.
assay: Pharmacokinetics study in rats (plasma and brain); format: in vivo, Sprague−Dawley rats; conditions: Sprague-Dawley, rat, brain and plasma, ip, 5 mg/kg, 5 mg/kg IP, AUC brain/plasma, read-out: brain: Plasma ratio
MEASUREMENT_LABEL: Kp

[[record]]
line_notation = "Cc1cccc(-n2cc(CN3CCN(c4ccc(Cl)cn4)CC3)nn2)c1"
measurement_label = "Kp"
measured_number = 0.3

[[record]]
line_notation = "Cc1cccc(-n2cc(CN3CCC(c4ccccc4)CC3)nn2)c1"
measurement_label = "Kp"
measured_number = 0.76

[[record]]
line_notation = "Cc1cccc(-n2cc(CN3CCN(c4ccccn4)CC3)nn2)c1"
measurement_label = "Kp"
measured_number = 0.72


---

assay: Pharmacokinetics study in rats (plasma and brain); format: in vivo, Sprague−Dawley rats; details: Sprague-Dawley, rat, plasma, ip, 5 mg/kg, 5 mg/kg IP, plasma, read-out: half-life (h) plasma (converted)
Readings of half-life for the listed molecules
MEASUREMENT_LABEL: half-life (h)

[[record]]
line_notation = "Cc1cccc(-n2cc(CN3CCN(c4ccccn4)CC3)nn2)c1"
measurement_label = "half-life"
measured_number = 1.09

[[record]]
line_notation = "Cc1cccc(-n2cc(CN3CCN(c4ccc(Cl)cn4)CC3)nn2)c1"
measurement_label = "half-life"
measured_number = 2.1

[[record]]
line_notation = "Cc1cccc(-n2cc(CN3CCC(c4ccccc4)CC3)nn2)c1"
measurement_label = "half-life"
measured_number = 0.37


---

# maps each entry to its IC50
molecular target: human D4R (Homo sapiens); assay: DiscoverX PathHunter β-arrestin recruitment assay, D4R
MEASUREMENT_LABEL: IC50 (nM)

[[record]]
line_notation = "Cc1cccc(-n2cc(CN3CCN(c4cccc5ccccc45)CC3)nn2)c1"
measurement_label = "IC50"
measured_number = 3600

[[record]]
line_notation = "Cc1cccc(-n2cc(CN3CCN(c4ccccn4)CC3)nn2)c1"
measurement_label = "IC50"
measured_number = 310

[[record]]
line_notation = "Cc1cccc(-n2cc(CN3CCN(c4ccc(Cl)cn4)CC3)nn2)c1"
measurement_label = "IC50"
measured_number = 3800

[[record]]
line_notation = "Cc1cccc(-n2cc(CN3CCN(c4ncccn4)CC3)nn2)c1"
measurement_label = "IC50"
measured_number = 140


Reference source for all entries: paper PMC12910498
